# tested-system: hQ23 (HEK-293 cell line stably transfected with one of the members of the KCNQ family) (Homo sapiens, UniProt O43525+O43526)
# Construct: expressed in transfected cells; host or cells: HEK-293, stably transfected
# Sequence (O43526 whole entry): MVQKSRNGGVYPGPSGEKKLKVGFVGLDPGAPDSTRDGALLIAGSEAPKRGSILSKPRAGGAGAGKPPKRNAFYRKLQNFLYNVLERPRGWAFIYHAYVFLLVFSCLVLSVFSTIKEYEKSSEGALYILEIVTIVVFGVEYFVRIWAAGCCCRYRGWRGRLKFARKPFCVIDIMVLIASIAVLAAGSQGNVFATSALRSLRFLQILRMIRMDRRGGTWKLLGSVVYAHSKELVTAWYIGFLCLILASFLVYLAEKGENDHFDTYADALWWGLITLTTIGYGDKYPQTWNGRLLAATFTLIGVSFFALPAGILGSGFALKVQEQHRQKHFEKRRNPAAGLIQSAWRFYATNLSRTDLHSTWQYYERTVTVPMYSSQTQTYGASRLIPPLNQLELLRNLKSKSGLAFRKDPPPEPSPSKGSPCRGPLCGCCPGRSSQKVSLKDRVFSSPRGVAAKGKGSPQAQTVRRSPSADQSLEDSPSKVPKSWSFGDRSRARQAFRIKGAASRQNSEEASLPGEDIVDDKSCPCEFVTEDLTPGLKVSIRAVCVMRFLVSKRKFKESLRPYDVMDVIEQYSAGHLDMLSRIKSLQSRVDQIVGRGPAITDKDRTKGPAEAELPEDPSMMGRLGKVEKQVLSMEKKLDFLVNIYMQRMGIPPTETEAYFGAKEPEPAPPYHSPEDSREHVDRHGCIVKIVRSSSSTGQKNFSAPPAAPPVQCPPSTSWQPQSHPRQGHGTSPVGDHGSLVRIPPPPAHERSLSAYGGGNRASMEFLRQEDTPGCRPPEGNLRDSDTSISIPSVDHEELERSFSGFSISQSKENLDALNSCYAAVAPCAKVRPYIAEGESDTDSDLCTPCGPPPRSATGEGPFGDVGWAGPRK
# Sequence (O43525 whole entry): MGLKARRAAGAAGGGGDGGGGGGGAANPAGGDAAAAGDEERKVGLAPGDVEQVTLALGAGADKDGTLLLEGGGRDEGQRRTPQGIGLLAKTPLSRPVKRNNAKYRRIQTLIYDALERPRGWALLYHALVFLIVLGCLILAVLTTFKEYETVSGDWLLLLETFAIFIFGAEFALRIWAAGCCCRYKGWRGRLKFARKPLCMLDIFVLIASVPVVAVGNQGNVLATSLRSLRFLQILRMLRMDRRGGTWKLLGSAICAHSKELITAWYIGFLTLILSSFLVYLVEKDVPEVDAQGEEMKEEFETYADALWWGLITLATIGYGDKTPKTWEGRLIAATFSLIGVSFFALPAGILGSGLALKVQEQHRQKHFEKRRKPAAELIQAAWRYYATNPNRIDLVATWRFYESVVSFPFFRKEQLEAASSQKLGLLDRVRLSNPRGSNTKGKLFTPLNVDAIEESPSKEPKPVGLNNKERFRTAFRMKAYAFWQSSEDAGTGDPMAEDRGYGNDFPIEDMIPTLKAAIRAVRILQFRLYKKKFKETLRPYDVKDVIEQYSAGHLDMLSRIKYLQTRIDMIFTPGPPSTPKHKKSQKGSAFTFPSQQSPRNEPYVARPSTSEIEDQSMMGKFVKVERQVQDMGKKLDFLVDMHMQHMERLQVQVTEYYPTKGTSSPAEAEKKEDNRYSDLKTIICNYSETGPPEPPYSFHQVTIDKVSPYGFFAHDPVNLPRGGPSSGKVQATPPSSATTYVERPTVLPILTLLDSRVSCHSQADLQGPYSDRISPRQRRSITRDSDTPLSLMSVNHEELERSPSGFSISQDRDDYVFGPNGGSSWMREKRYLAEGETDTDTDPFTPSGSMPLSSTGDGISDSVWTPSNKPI
# measurement-notes: Thallium flux assay for KCNQ channel blockers (FLIPR, BTC dye)
# Format: cell-based
# experimental-setup: hQ23 cells, thallium flux
# Experimental: Thallium Flux Assay for KCNQ channel blockers. […] For generating IC50 values, compounds were serially diluted in 1:3 volume increments to produce a 10 point concentration series. IC50 values were calculated by fitting the resulting amplitudes to a single-site logistic equation. […]
measurement-name: log10 of EC50 (log10 of the value in nM)

>  <compound>
CCC(C)Nc1ncc(C(=O)NC(C)c2cccc3ccccc23)c(C2(c3ccc(Cl)cc3)CCCC2)n1 (stereo not shown)

>  <log10 of EC50>
2.05

$$$$
>  <compound>
CC1CCCN(c2ncc(C(=O)N(C)Cc3ccccc3)c(C3(c4ccc(F)cc4)CCCC3)n2)C1 (stereo not shown)

>  <log10 of EC50>
2.06

$$$$
>  <compound>
O=C(NCc1ccc2c(c1)OCO2)c1cnc(NC2CCCC2)nc1C1(c2ccc(Cl)cc2)CCCC1

>  <log10 of EC50>
1.85

$$$$
>  <compound>
CC(NC(=O)c1cnc(N2CCCC2)nc1C1(c2ccccc2)CCCC1)c1cccc2ccccc12 (stereo not shown)

>  <log10 of EC50>
2.17

$$$$
>  <compound>
CN(CCc1ccccc1)C(=O)c1cnc(NC2CC2)nc1C1(c2ccc(Cl)cc2)CCCC1

>  <log10 of EC50>
2.95

$$$$
>  <compound>
CCN(C)C(=O)c1cnc(NC2CCC(C)CC2)nc1C1(c2ccc(F)cc2)CCCC1 (stereo not shown)

>  <log10 of EC50>
2.66

$$$$
>  <compound>
CC(NC(=O)c1cnc(NC2CCCC2)nc1C1(c2ccccc2)CCCC1)c1cccc2ccccc12 (stereo not shown)

>  <log10 of EC50>
2.20

$$$$
>  <compound>
O=C(NCc1ccc(F)cc1F)c1cnc(N2CCCC2)nc1C1(c2ccccc2)CCCC1

>  <log10 of EC50>
2.10

$$$$
>  <compound>
CC1CCN(c2ncc(C(=O)N(C)C3CCCCC3)c(C3(c4ccc(F)cc4)CCCC3)n2)CC1

>  <log10 of EC50>
2.75

$$$$
>  <compound>
CC1CCC(Nc2ncc(C(=O)NC(C)c3ccc(F)cc3)c(C3(c4ccc(Cl)cc4)CCCC3)n2)CC1 (stereo not shown)

>  <log10 of EC50>
2.37

$$$$
>  <compound>
CC1CCCN(c2ncc(C(=O)NCc3cccc4ccccc34)c(C3(c4ccc(Cl)cc4)CCCC3)n2)C1 (stereo not shown)

>  <log10 of EC50>
1.00

$$$$
>  <compound>
CC1CCC(Nc2ncc(C(=O)N(C)CCc3ccccc3)c(C3(c4ccc(F)cc4)CCCC3)n2)CC1 (stereo not shown)

>  <log10 of EC50>
2.52

$$$$
>  <compound>
CCN(Cc1ccccc1)C(=O)c1cnc(NC2CCC(C)CC2)nc1C1(c2ccccc2)CCCC1 (stereo not shown)

>  <log10 of EC50>
2.92

$$$$
>  <compound>
O=C(NCc1ccc(Cl)cc1Cl)c1cnc(NC2CCCC2)nc1C1(c2ccc(Cl)cc2)CCCC1

>  <log10 of EC50>
1.00

$$$$
>  <compound>
CC1CCC(Nc2ncc(C(=O)NCc3ccc(Cl)cc3Cl)c(C3(c4ccc(Cl)cc4)CCCC3)n2)CC1 (stereo not shown)

>  <log10 of EC50>
1.74

$$$$
>  <compound>
CC(NC(=O)c1cnc(N2CCCC2)nc1C1(c2ccc(Cl)cc2)CCCC1)c1cccc2ccccc12 (stereo not shown)

>  <log10 of EC50>
1.60

$$$$

---

Reported EC50 is given for each of the following compounds.
# tested-system: hQ23 (HEK-293 cell line stably transfected with one of the members of the KCNQ family) (Homo sapiens, UniProt O43525+O43526)
# Construct: expressed in transfected cells; host or cells: HEK-293, stably transfected
# measurement-notes: Thallium flux assay for KCNQ channel blockers (FLIPR, BTC dye)
# Type: cell-based
# experimental-setup: hQ23 cells, thallium flux
measurement-name: EC50 (nM)

>  <compound>
CN(C(=O)c1cnc(NC2CCCC2)nc1C1(c2ccc(F)cc2)CCCC1)C1CCCCC1

>  <measurement-name>
EC50

>  <unit-tag>
nM

>  <numeric-result>
702

$$$$
>  <compound>
O=C(NCc1ccc2c(c1)OCO2)c1cnc(NC2CC2)nc1C1(c2ccccc2)CCCC1

>  <measurement-name>
EC50

>  <unit-tag>
nM

>  <numeric-result>
692

$$$$
>  <compound>
CCC(C)Nc1ncc(C(=O)N(CC)C2CCCCC2)c(C2(c3ccc(Cl)cc3)CCCC2)n1 (stereo not drawn)

>  <measurement-name>
EC50

>  <unit-tag>
nM

>  <numeric-result>
880

$$$$

---

# tested-system: hQ23 (HEK-293 cell line stably transfected with one of the members of the KCNQ family) (Homo sapiens, UniProt O43525+O43526)
# Construct: expressed in transfected cells; host or cells: HEK-293, stably transfected
# measurement-notes: Thallium flux assay for KCNQ channel blockers (FLIPR, BTC dye)
# Assay type: cell-based
# experimental-setup: hQ23 cells, thallium flux
pEC50: −log10 of the molar value.
Label No if pEC50 falls below 7; label Yes in every other case.

>  <molecule>
CC1CCN(c2ncc(C(=O)N(C)Cc3ccccc3)c(C3(c4ccc(Cl)cc4)CCCC3)n2)CC1 [Example 140]

>  <assigned-category>
No

$$$$
>  <molecule>
CN(Cc1ccccc1)C(=O)c1cnc(NC2CCCC2)nc1C1(c2ccccc2)CCCC1 [Example 71]

>  <assigned-category>
No

$$$$
>  <molecule>
CCC(C)Nc1ncc(C(=O)NC(C)c2ccc(F)cc2)c(C2(c3ccccc3)CCCC2)n1 (stereo not shown) [Example 135]

>  <assigned-category>
Yes

$$$$
>  <molecule>
CCC(C)Nc1ncc(C(=O)NC(C)c2cccc3ccccc23)c(C2(c3ccccc3)CCCC2)n1 (stereo not shown) [Example 99]

>  <assigned-category>
No

$$$$
>  <molecule>
CC1CCN(c2ncc(C(=O)N3CCCC(C)C3)c(C3(c4ccc(F)cc4)CCCC3)n2)CC1 (stereo not shown) [Example 218]

>  <assigned-category>
No

$$$$
>  <molecule>
CC1CCCN(c2ncc(C(=O)N3CCc4ccccc4C3)c(C3(c4ccc(F)cc4)CCCC3)n2)C1 (stereo not shown) [Example 211]

>  <assigned-category>
No

$$$$
>  <molecule>
O=C(NCc1ccc(Cl)cc1Cl)c1cnc(NC2CC2)nc1C1(c2ccccc2)CCCC1 [Example 109]

>  <assigned-category>
No

$$$$
>  <molecule>
CC1CCN(c2ncc(C(=O)NC(C)c3cccc4ccccc34)c(C3(c4ccccc4)CCCC3)n2)CC1 (stereo not shown) [Example 98]

>  <assigned-category>
Yes

$$$$
>  <molecule>
CC1CCCN(c2ncc(C(=O)NCc3cc(F)cc(C(F)(F)F)c3)c(C3(c4ccc(Cl)cc4)CCCC3)n2)C1 (stereo not shown) [Example 192]

>  <assigned-category>
Yes

$$$$
>  <molecule>
CCN(C)C(=O)c1cnc(N2CCC(C)CC2)nc1C1(c2ccc(F)cc2)CCCC1 [Example 227]

>  <assigned-category>
No

$$$$
>  <molecule>
CC1CCN(c2ncc(C(=O)NC(C)c3cccc4ccccc34)c(C3(c4ccc(Cl)cc4)CCCC3)n2)CC1 (stereo not shown) [Example 161]

>  <assigned-category>
Yes

$$$$
>  <molecule>
CC(NC(=O)c1cnc(N2CCN(C)CC2)nc1C1(c2ccccc2)CCCC1)c1ccc(F)cc1 (stereo not shown) [Example 133]

>  <assigned-category>
No

$$$$

---

# tested-system: hQ23 (HEK-293 cell line stably transfected with one of the members of the KCNQ family) (Homo sapiens, UniProt O43525+O43526)
# Construct: expressed in transfected cells; host or cells: HEK-293, stably transfected
# measurement-notes: Thallium flux assay for KCNQ channel blockers (FLIPR, BTC dye)
# Format: cell-based
# experimental-setup: hQ23 cells, thallium flux
measurement-name: EC50 (nM)

>  <molecule>
CC1CCN(c2ncc(C(=O)NCc3ccc(Cl)c(Cl)c3)c(C3(c4ccccc4)CCCC3)n2)CC1 [Example 108]

>  <numeric-result>
37

$$$$
>  <molecule>
O=C(NCc1cc(F)cc(C(F)(F)F)c1)c1cnc(N2CCCC2)nc1C1(c2ccccc2)CCCC1 [Example 124]

>  <numeric-result>
240

$$$$
>  <molecule>
CC1CCN(c2ncc(C(=O)NC(C)c3ccc(F)cc3)c(C3(c4ccc(Cl)cc4)CCCC3)n2)CC1 (centres unmarked) [Example 199]

>  <numeric-result>
61

$$$$
>  <molecule>
CC(NC(=O)c1cnc(NC2CCCC2)nc1C1(c2ccccc2)CCCC1)c1ccc(F)cc1 (centres unmarked) [Example 136]

>  <numeric-result>
413

$$$$
>  <molecule>
CCC(C)Nc1ncc(C(=O)NCc2ccc3c(c2)OCO3)c(C2(c3ccc(Cl)cc3)CCCC2)n1 (centres unmarked) [Example 155]

>  <numeric-result>
337

$$$$
>  <molecule>
CC1CCC(Nc2ncc(C(=O)N3CCc4ccccc4C3)c(C3(c4ccccc4)CCCC3)n2)CC1 (centres unmarked) [Example 73]

>  <numeric-result>
798

$$$$
>  <molecule>
CC(NC(=O)c1cnc(NCCN(C)C)nc1C1(c2ccc(Cl)cc2)CCCC1)c1cccc2ccccc12 (centres unmarked) [Example 163]

>  <numeric-result>
705

$$$$
>  <molecule>
CCC(C)Nc1ncc(C(=O)N(CC)C2CCCCC2)c(C2(c3ccc(F)cc3)CCCC2)n1 (centres unmarked) [Example 216]

>  <numeric-result>
821

$$$$
